targetOrSystem: recombinant human MAO-B (monoamine oxidase-B) (Homo sapiens)
Construct: purchased Sigma-Aldrich
Sequence (P27338 1-520): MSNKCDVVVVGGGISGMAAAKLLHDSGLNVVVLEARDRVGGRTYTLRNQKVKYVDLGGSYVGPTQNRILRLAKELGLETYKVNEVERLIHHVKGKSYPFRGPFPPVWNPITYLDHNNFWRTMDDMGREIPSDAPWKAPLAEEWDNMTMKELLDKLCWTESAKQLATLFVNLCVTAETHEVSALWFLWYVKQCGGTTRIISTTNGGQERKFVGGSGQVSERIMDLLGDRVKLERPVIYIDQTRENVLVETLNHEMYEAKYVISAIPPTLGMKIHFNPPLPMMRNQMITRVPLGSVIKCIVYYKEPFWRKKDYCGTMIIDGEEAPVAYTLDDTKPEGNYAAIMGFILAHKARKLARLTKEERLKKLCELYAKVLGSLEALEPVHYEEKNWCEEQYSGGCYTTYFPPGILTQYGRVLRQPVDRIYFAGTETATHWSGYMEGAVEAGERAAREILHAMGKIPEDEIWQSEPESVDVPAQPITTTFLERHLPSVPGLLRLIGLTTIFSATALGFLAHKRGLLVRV
testMethodNotes: Activity on recombinant human MAO-B, Amplex Red method, 1 mM benzylamine substrate
Format: biochemical
measurementConditions: 1 mM benzylamine, read-out: Inhibitory Activity (IC50, nM) MAO-B
Where a name gives a salt, the structure may show the parent alone.
# IC50 per entry

INSERT INTO results (molecule, measurement) VALUES
  ('NC/C(=C/F)Cn1ncn(-c2cccc(-c3ccc(-c4nnc[nH]4)cc3)c2)c1=O', '> 10000 nM');

What reported IC50 corresponds to NC/C(=C\F)Cn1ncn(-c2cccc(-c3ccc(N4CCOCC4)cc3)c2)c1=O [Example 74, hydrochloride] on recombinant human MAO-B (monoamine oxidase-B) (Homo sapiens)?
> 10000 nM

Another molecule: CS(=O)(=O)c1ccc(-c2ccc(-c3cccc(-n4cnn(C/C(=C/F)CN)c4=O)c3)cc2)cc1 [Example 66, hydrochloride]
> 10000 nM

Cited source: patent US11492335B2
